test: Kinematic viscosity of shampoo base formulation with viscosity reducing agent (calibrated viscometers); assay type: physicochemical; details: lowest of 2-8% agent in base formulation, 40° C.
Lab note: anything with Lowest viscosity achieved (cSt) below 40 cSt is marked fulfilled; values at 40 cSt or higher are marked not fulfilled.

Please determine if CCCCCCC1C(=O)CCC1C(=O)OC (stereo not shown) [Dihyro Iso Jasmonate] is below 40 cSt in terms of Lowest viscosity achieved (cSt).
not fulfilled

Say whether its Lowest viscosity achieved (cSt) is strictly beneath 40 cSt. Entry: CCC(=O)OC1CC2CC1C1CC=CC21 (stereo not shown)
not fulfilled

Given the entry `CC(=O)CCc1ccc(O)cc1` , would its reported Lowest viscosity achieved (cSt) be below 40 cSt?
fulfilled

Bench note: check whether CC(C)COC(=O)c1ccccc1O [Iso Butyl Salicylate] shows Lowest viscosity achieved (cSt) below 40 cSt
not fulfilled

API: query returns whether the compound falls strictly under 40 cSt in Lowest viscosity achieved (cSt). Query: C=C(C)[C@H]1CC=C(C)CC1 [Dipentene]
fulfilled

Lab note: Lowest viscosity achieved (cSt) threshold 40 cSt. Does this compound come in strictly under it? `CC(C)CC=C(C=O)C(C)C`
not fulfilled
